Source: paper PMC6718736

# experiment description: Solubility by visual inspection (DMSO stock solution and assay medium)
# Assay type: physicochemical
# condition set: Lab 6, visual observation, assay medium
result type: PHH medium stability (µg/mL)
Give bare numbers, in µg/mL.

Recorded PHH medium stability, per entry:
- molecule: "O=C1NC(=O)C(c2ccccc2)(c2ccccc2)N1 [Phenytoin sodium]"
  PHH medium stability (µg/mL): 10
- molecule: "CO[C@H]1/C=C/O[C@@]2(C)Oc3c(C)c(O)c4c(c3C2=O)C2=NC3(CCN(CC(C)C)CC3)NC2=C(NC(=O)/C(C)=C\\C=C\\[C@H](C)[C@H](O)[C@@H](C)[C@@H](O)[C@@H](C)[C@H](OC(C)=O)[C@@H]1C)C4=O [Rifabutin]"
  PHH medium stability (µg/mL): 40
- molecule: "CC1(C)S[C@@H]2[C@H](NC(=O)Cc3ccccc3)C(=O)N2[C@H]1C(=O)O [Penicillin G sodium]"
  PHH medium stability (µg/mL): 20
- molecule: "OCc1c[nH]c2ccccc12 [Indole-3-carbinol]"
  PHH medium stability (µg/mL): 20

We now examine a further molecule.
**Query** Please report the recorded PHH medium stability for O=C1Nc2ccc(Cl)cc2[C@@](C#CC2CC2)(C(F)(F)F)O1 [Efavirenz] .
**Result** 40

* * *

# Test system: CYP2B6
# experiment description: CYP2B6 enzyme induction assay in cryopreserved primary human hepatocytes (PHH);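 note: code 1 means positive inducer and 0 means non-inducer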
# Format: in vitro ADME
# condition set: PHH; Lab 2; batch 4 0 8
Structures can show the parent of a compound that is named as a salt.
result type: Assigned classification CYP2B6

Go through the items and report each one's Assigned classification CYP2B6.
1. NC(=O)N1c2ccccc2C=Cc2ccccc21 [Carbamazepine]
2. O=C1NC(=O)C(c2ccccc2)(c2ccccc2)N1 [Phenytoin sodium]
3. O=C1Nc2ccc(Cl)cc2[C@@](C#CC2CC2)(C(F)(F)F)O1
4. COc1ccc2[nH]c([S+]([O-])Cc3ncc(C)c(OC)c3C)nc2c1 (stereo not drawn)
5. CC(C)NCC(O)c1ccc(NS(C)(=O)=O)cc1 (stereo not drawn) [Sotalol hydrochloride]
6. COCCc1ccc(OCC(O)CNC(C)C)cc1 (stereo not drawn)

**Result**
1: 1; 2: 1; 3: 1; 4: 0; 5: 0; 6: 0

Go through the items and report each one's Assigned classification CYP2B6.
1. COc1ccccc1Oc1c(NS(=O)(=O)c2ccc(C(C)(C)C)cc2)nc(-c2ncccn2)nc1OCCO [Bosentan hydrate]
2. CO[C@H]1/C=C/O[C@@]2(C)Oc3c(C)c(O)c4c(O)c(c(/C=N/N5CCN(C)CC5)c(O)c4c3C2=O)NC(=O)/C(C)=C\C=C\[C@H](C)[C@H](O)[C@@H](C)[C@@H](O)[C@@H](C)[C@H](OC(C)=O)[C@@H]1C
3. CO[C@H]1/C=C/O[C@@]2(C)Oc3c(C)c(O)c4c(c3C2=O)C2=NC3(CCN(CC(C)C)CC3)NC2=C(NC(=O)/C(C)=C\C=C\[C@H](C)[C@H](O)[C@@H](C)[C@@H](O)[C@@H](C)[C@H](OC(C)=O)[C@@H]1C)C4=O

**Result**
1: 0; 2: 0; 3: 0

* * *

# Tested on: CYP3A4
# experiment description: CYP3A4 enzyme induction assay in cryopreserved primary human hepatocytes (PHH)
# condition set: CYP3A4, PHH
Structures can show the parent of a compound that is named as a salt.
result type: Prediction in vivo inducer

Recorded Prediction in vivo inducer, per entry:
- compound: "COCCc1ccc(OCC(O)CNC(C)C)cc1 (stereo not shown)"
  target of assay: "CYP3A4"
  Prediction in vivo inducer: "No"
- compound: "NC(=O)N1c2ccccc2C=Cc2ccccc21 [Carbamazepine]"
  target of assay: "CYP3A4"
  Prediction in vivo inducer: "Yes"
- compound: "CC(C)NCC(O)c1ccc(NS(C)(=O)=O)cc1 (stereo not shown) [Sotalol hydrochloride]"
  target of assay: "CYP3A4"
  Prediction in vivo inducer: "No"
- compound: "COc1ccc2[nH]c([S+]([O-])Cc3ncc(C)c(OC)c3C)nc2c1 (stereo not shown)"
  target of assay: "CYP3A4"
  Prediction in vivo inducer: "No"
- compound: "O=C1NC(=O)C(c2ccccc2)(c2ccccc2)N1 [Phenytoin sodium]"
  target of assay: "CYP3A4"
  Prediction in vivo inducer: "Yes"
- compound: "COc1ccccc1Oc1c(NS(=O)(=O)c2ccc(C(C)(C)C)cc2)nc(-c2ncccn2)nc1OCCO [Bosentan hydrate]"
  target of assay: "CYP3A4"
  Prediction in vivo inducer: "Yes"

**Query** Please report the recorded Prediction in vivo inducer for O=C1Nc2ccc(Cl)cc2[C@@](C#CC2CC2)(C(F)(F)F)O1 .
**Result** Yes
